Tested on: H727 cells
Test: Inhibition of KRas-mediated phosphorylation of ERK (Cisbio HTRF pERK), H727 cells
Format: cell-based
Conditions: Homo sapiens, NCI-H727, single point at 100 nM, 3 hrs compound incubation
Can you tell me inhibition at 0.1 µM for the items I'm about to list?
The figure you give is taken to be in %; do not add the unit.

Which inhibition at 0.1 µM reading was recorded for the compound CCc1c(F)ccc2cc(O)cc(N3CCc4c(nc(OC[C@@]56CCCN5C[C@H](F)C6)nc4N4CCCn5nc(C(=O)N6CC7COCC6C7)cc5C4)C3)c12 (stereo partly drawn) ?
80

Please report the recorded inhibition at 0.1 µM for CCc1c(F)ccc2cc(O)cc(N3CCc4c(nc(OC[C@@]56CCCN5C[C@H](F)C6)nc4N4CCCC5(C4)NC(=O)NC5=S)C3)c12 (stereo partly drawn) .
25

Given the entry CCc1c(F)ccc2cc(O)cc(N3CCc4c(nc(OC[C@@]56CCCN5C[C@H](F)C6)nc4N4CCCn5nc(CN(C)S(=O)(=O)NC)cc5C4)C3)c12 , report its measured inhibition at 0.1 µM.
22

Any idea what inhibition at 0.1 µM was measured for CCc1c(F)ccc2cc(O)cc(N3CCc4c(nc(OC[C@@]56CCCN5C[C@H](F)C6)nc4N4CCCn5nc(C(=O)NC)c(C)c5C4)C3)c12 ?
69

For CCc1c(F)ccc2cc(O)cc(N3CCc4c(nc(OC[C@@]56CCCN5C[C@H](F)C6)nc4N4CCCc5nn(C6CC6)cc5C4)C3)c12 , what is its reported inhibition at 0.1 µM?
-8

State the recorded inhibition at 0.1 µM for this entry: CCc1c(F)ccc2cc(O)cc(N3CCc4c(nc(OC[C@@]56CCCN5C[C@H](F)C6)nc4N4CCCn5nc(C(=O)N6C7CCCC6CC7)cc5C4)C3)c12
76

Endpoint output: inhibition at 0.1 µM of CCc1c(F)ccc2cc(O)cc(N3CCc4c(nc(OC[C@@]56CCCN5C[C@H](F)C6)nc4N4CCCn5nc(C(=O)N6CC7CCC6CN7)cc5C4)C3)c12 (stereo partly drawn) . Value?
22

Name the recorded inhibition at 0.1 µM for O=C1NCC2(CCCN(c3nc(OCC45CCCN4CCC5)nc4c3CCN(c3cc(O)cc(Cl)c3C3CC3)C4)C2)N1 (stereo not drawn) .
-4

What value of measured inhibition at 0.1 µM is listed for O=S1(=O)NCC2(CCCN(c3nc(OCC45CCCN4CCC5)nc4c3CCN(c3cc(O)cc(Cl)c3C3CC3)C4)C2)N1 (stereo not drawn) ?
-7

// lookup inhibition at 0.1 µM for CCc1c(F)ccc2cc(O)cc(N3CCc4c(nc(OC[C@@]56CCCN5C[C@H](F)C6)nc4N4CCCCn5nc(C(=O)NC(C)C)c(Cl)c5C4)C3)c12
80

Would you mind telling me what inhibition at 0.1 µM value was observed for Cc1cc2[nH]ncc2c(N2CCc3c(nc(OCC4(CN(C)C)CC4)nc3N3CCC[C@]4(C3)NC(=O)NC4=O)C2)c1C ?
-8

Please look up its inhibition at 0.1 µM: CCc1c(F)ccc2cc(O)cc(N3CCc4c(nc(OC[C@@]56CCCN5C[C@H](F)C6)nc4N4CCCCC(COC(C)C(=O)N(C)C)C4)C3)c12 (stereo partly drawn)
0
